system_name: K681R-PFKL (Homo sapiens, UniProt P17858, K681R)
assay_protocol: enzyme-coupled F6P phosphorylation assay, K681R-PFKL
condition_set: read-out: IC50, inhibition of PFKL activity
assay_endpoint: pIC50
Numbers only, as −log10 of the molar value.

Q: Which measured pIC50 belongs to CC1(C)[C@@H]2C[C@H]3[C@H](c4ccccc4)c4c(O)c(C=O)c(O)c(C=O)c4O[C@@]3(C)[C@H]1C2 [(−)-guadial B] , tested on K681R-PFKL (Homo sapiens, UniProt P17858, K681R)?
A: 5.15

###

system_name: K373R-ABHD12 (Homo sapiens, UniProt Q8N2K0, K373R)
Sequence (Q8N2K0 whole entry K373R): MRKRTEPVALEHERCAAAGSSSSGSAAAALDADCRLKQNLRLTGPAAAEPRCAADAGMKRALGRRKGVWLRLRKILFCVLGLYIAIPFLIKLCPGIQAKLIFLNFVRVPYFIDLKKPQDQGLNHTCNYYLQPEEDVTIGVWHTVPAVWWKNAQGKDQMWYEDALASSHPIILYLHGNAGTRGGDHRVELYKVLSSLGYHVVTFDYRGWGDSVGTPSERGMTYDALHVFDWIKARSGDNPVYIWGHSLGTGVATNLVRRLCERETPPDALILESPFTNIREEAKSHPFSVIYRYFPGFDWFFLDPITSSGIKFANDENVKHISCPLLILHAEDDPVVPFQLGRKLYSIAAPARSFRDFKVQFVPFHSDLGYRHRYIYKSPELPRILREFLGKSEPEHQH
assay_protocol: LC/MS-based LPS hydrolysis assay, K373R-ABHD12 in HEK293T cell lysates
Assay type: biochemical
condition_set: read-out: IC50, inhibition of LPS hydrolysis activity; K373R-ABHD12 mutant
pIC50: −log10 of the molar value.
assay_endpoint: pIC50

Q: Need pIC50 of CC1(C)[C@@H]2C[C@H]3[C@H](c4ccccc4)c4c(O)c(C=O)c(O)c(C=O)c4O[C@@]3(C)[C@H]1C2 [(−)-guadial B] , thanks.
A: < 4.00

###

system_name: WT-PFKP (Homo sapiens, UniProt Q01813)
Sequence (Q01813 1-784): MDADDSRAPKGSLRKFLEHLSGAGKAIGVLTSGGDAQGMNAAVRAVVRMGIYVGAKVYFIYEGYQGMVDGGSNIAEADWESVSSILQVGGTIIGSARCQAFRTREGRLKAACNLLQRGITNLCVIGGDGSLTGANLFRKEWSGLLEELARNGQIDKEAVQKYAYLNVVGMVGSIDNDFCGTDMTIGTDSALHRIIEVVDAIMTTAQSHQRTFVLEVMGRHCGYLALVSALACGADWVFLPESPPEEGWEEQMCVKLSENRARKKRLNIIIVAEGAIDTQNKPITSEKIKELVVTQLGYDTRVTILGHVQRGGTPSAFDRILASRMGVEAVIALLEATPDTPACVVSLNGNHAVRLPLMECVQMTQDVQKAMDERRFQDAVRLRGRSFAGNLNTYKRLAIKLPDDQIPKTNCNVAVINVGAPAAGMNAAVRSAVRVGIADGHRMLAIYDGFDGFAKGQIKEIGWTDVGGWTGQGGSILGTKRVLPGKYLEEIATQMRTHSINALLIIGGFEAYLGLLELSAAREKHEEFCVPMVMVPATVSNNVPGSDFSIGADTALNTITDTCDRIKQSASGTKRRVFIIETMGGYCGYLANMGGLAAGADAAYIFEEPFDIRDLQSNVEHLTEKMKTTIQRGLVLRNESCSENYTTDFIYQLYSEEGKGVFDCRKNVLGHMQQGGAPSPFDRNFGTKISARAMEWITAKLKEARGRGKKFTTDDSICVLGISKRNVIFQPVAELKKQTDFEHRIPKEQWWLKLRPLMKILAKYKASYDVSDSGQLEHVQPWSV
Type: binding
condition_set: read-out: apparent IC50, blockade of P1 probe labeling; WT-PFKP
assay_endpoint: pIC50
One number for each entry, as −log10 of the molar value.

Q: Which measured pIC50 belongs to CC1(C)[C@@H]2C[C@H]3[C@H](c4ccccc4)c4c(O)c(C=O)c(O)c(C=O)c4O[C@@]3(C)[C@H]1C2 [(−)-guadial B] , tested on WT-PFKP (Homo sapiens, UniProt Q01813)?
A: 4.86
